test: Unbound fraction in brain and plasma; assay type: in vitro ADME; conditions: unbound fraction in brain
measurement.kind: fubrain (%)
Give the value, in units of %, as a plain number.

{"columns": ["compound.string", "units", "fubrain"],
 "data": [
  ["O=C(c1ccc(S(=O)(=O)Nc2ccccc2)cc1)N(Cc1ccc(OCCO)cc1)CC1CC1", "%", 0.9],
  ["COCCNc1ccc(CN(CC2CC2)C(=O)c2ccc(S(=O)(=O)Nc3ccccc3)cc2)nc1", "%", 2.2]
]}

Next, consider the following molecule.
Please give the measured fubrain for this molecule: O=C(c1ccc(S(=O)(=O)Nc2ccccc2)cc1)N(Cc1ccc(NCCO)cn1)CC1CC1 2.8
